Here we list compounds with their recorded IC50 when tested on Jarid1B (Homo sapiens (Human), UniProt Q9UGL1).
Sequence (Q9UGL1 2-751): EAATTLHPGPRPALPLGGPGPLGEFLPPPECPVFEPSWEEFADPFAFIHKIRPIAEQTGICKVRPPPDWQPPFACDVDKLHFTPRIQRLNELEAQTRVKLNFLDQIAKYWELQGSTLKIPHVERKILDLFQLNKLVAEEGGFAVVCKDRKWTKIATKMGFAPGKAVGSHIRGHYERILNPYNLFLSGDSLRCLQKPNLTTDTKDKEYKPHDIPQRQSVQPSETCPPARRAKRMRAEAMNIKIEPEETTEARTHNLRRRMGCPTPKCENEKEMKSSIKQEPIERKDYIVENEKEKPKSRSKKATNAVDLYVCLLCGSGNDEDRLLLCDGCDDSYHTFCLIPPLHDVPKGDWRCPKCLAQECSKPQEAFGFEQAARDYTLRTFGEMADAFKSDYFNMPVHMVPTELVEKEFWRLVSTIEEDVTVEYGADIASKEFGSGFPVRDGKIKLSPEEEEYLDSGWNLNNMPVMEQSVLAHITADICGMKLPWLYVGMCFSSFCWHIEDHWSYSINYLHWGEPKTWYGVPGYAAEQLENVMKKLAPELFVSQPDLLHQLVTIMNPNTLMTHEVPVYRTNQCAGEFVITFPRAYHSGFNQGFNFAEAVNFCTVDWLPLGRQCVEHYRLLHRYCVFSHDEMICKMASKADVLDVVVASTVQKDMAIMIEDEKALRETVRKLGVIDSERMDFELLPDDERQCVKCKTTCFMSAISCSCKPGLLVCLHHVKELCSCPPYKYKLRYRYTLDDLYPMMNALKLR

Illustrative cases are given below, each with its answer.
>  <COMPOUND>
CN(C)CCc1cnn(-c2cc(C(=O)O)ccn2)c1OCc1ccc(F)cc1 [Example 110]

>  <IC50>
< 100 nM

$$$$
>  <COMPOUND>
O=C(O)c1ccnc(-n2nccc2OCc2ccc(Cl)c(OCC3CC3)c2)c1 [Example 140]

>  <IC50>
100 to 1000 nM

$$$$
>  <COMPOUND>
COc1cc(I)ccc1COc1ccnn1-c1cc(C(=O)O)ccn1 [Example 145]

>  <IC50>
< 100 nM

$$$$
>  <COMPOUND>
O=C(O)c1ccnc(-n2nccc2OC2CCc3cc(F)ccc32)c1 (centres unmarked) [Example 146]

>  <IC50>
100 to 1000 nM

$$$$
>  <COMPOUND>
Cc1ccc(COc2ccnn2-c2cc(C(=O)O)ccn2)c(C)c1 [Example 132]

>  <IC50>
< 100 nM

$$$$
>  <COMPOUND>
O=C(O)c1ccnc(-n2nccc2OCc2ccc(Cl)c(OCC(F)(F)F)c2)c1 [Example 141]

>  <IC50>
< 100 nM

$$$$
>  <COMPOUND>
O=C(O)c1ccnc(-n2nccc2OCc2cccnc2)c1 [Example 60]

>  <IC50>
< 100 nM

$$$$
>  <COMPOUND>
O=C(O)c1ccnc(-n2nccc2CCc2ccccc2)c1 [Example 34]

>  <IC50>
1000 to 10000 nM

$$$$

The recorded IC50 for entry CCCCOc1cc(Cl)ccc1COc1ccnn1-c1cc(C(=O)O)ccn1 [Example 111] equals 100 to 1000 nM

The recorded IC50 for entry O=C(O)c1ccnc(-n2nc(Cc3ccccc3Cl)cc2O)c1 [Example 163] equals 1000 to 10000 nM

The recorded IC50 for entry O=C(O)c1ccnc(-n2nccc2-c2ccc(O)cc2)c1 [Example 18] equals 100 to 1000 nM

The recorded IC50 for entry O=C(O)c1ccnc(-n2nccc2-c2ccc(F)c(F)c2)c1 [Example 15] equals 100 to 1000 nM

The recorded IC50 for entry COCCOc1cc(Cl)ccc1COc1ccnn1-c1cc(C(=O)O)ccn1 [Example 116] equals < 100 nM

The recorded IC50 for entry Cc1cc(I)ccc1COc1ccnn1-c1cc(C(=O)O)ccn1 [Example 144] equals < 100 nM

* * *

Here we list compounds with their recorded IC50 when tested on JMJD2C (Homo sapiens (Human), UniProt Q9H3R0).
Sequence (Q9H3R0 2-372): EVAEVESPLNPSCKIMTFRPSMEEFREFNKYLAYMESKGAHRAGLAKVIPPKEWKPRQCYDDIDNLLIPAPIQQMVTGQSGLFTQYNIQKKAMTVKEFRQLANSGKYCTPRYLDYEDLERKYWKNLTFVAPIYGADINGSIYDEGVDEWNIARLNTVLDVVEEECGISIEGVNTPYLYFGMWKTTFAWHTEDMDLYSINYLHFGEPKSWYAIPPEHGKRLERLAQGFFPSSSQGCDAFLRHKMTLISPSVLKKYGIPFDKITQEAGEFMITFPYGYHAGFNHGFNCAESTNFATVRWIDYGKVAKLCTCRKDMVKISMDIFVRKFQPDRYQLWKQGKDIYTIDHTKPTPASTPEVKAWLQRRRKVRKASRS

Illustrative cases are given below, each with its answer.
>  <MOLECULE_SMILES>
O=C(O)c1ccnc(-n2nccc2OCc2ccc(Cl)cc2OCC2CC2)c1

>  <VALUE_OBSERVED>
0.1 to 1 µM

$$$$
>  <MOLECULE_SMILES>
O=C(O)c1ccnc(-n2nccc2OCc2ccccc2F)c1

>  <VALUE_OBSERVED>
< 0.1 µM

$$$$
>  <MOLECULE_SMILES>
O=C(O)c1ccnc(-n2nc(Cc3cccc(Cl)c3)cc2O)c1

>  <VALUE_OBSERVED>
1 to 10 µM

$$$$

The recorded IC50 for entry "O=C(O)c1ccnc(-n2nccc2-c2ccc(F)cc2)c1" equals 0.1 to 1 µM

* * *

The following molecules are shown together with reported pIC50 values.
molecular target: JMJD2A (Homo sapiens (Human))
Sequence (O75164 1-350): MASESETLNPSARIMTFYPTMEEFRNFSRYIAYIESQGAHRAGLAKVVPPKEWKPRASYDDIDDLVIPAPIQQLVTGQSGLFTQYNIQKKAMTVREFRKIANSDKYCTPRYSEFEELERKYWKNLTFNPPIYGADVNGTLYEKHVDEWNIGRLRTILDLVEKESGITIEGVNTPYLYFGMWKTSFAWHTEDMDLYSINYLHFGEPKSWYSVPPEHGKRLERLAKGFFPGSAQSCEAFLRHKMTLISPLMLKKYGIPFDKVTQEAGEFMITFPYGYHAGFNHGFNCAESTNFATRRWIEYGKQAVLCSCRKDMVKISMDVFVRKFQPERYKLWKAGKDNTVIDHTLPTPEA
pIC50: −log10 of the molar value.

Illustrative cases are given below, each with its answer.
>  <MOLECULE_SMILES>
Oc1cc(Cc2ccc(Cl)cc2)nn1-c1cc(-c2nnn[nH]2)ccn1

>  <pIC50>
< 5.00

$$$$
>  <MOLECULE_SMILES>
Cc1ccc(COc2ccnn2-c2cc(C(=O)O)ccn2)c(Cl)c1

>  <pIC50>
6.00 to 7.00

$$$$
>  <MOLECULE_SMILES>
CCCCOc1cc(Cl)ccc1COc1ccnn1-c1cc(C(=O)O)ccn1

>  <pIC50>
5.00 to 6.00

$$$$

The recorded pIC50 for entry "O=C(O)c1ccnc(-n2nccc2OCc2ccc(Cl)cc2OCc2ccc(F)cc2)c1" equals 5.00 to 6.00

The recorded pIC50 for entry "COc1cc(C)ccc1COc1ccnn1-c1cc(C(=O)O)ccn1" equals 6.00 to 7.00

The recorded pIC50 for entry "O=C(O)c1ccnc(-n2nc(C3CCCC3)cc2O)c1" equals < 5.00

The recorded pIC50 for entry "O=C(O)c1ccnc(-n2nc(-c3ccc(Cl)cc3)cc2O)c1" equals 5.00 to 6.00
